- TARGET_ENTITY: SOS1 (Homo sapiens, UniProt Q07889)
- Sequence (Q07889 1-1333): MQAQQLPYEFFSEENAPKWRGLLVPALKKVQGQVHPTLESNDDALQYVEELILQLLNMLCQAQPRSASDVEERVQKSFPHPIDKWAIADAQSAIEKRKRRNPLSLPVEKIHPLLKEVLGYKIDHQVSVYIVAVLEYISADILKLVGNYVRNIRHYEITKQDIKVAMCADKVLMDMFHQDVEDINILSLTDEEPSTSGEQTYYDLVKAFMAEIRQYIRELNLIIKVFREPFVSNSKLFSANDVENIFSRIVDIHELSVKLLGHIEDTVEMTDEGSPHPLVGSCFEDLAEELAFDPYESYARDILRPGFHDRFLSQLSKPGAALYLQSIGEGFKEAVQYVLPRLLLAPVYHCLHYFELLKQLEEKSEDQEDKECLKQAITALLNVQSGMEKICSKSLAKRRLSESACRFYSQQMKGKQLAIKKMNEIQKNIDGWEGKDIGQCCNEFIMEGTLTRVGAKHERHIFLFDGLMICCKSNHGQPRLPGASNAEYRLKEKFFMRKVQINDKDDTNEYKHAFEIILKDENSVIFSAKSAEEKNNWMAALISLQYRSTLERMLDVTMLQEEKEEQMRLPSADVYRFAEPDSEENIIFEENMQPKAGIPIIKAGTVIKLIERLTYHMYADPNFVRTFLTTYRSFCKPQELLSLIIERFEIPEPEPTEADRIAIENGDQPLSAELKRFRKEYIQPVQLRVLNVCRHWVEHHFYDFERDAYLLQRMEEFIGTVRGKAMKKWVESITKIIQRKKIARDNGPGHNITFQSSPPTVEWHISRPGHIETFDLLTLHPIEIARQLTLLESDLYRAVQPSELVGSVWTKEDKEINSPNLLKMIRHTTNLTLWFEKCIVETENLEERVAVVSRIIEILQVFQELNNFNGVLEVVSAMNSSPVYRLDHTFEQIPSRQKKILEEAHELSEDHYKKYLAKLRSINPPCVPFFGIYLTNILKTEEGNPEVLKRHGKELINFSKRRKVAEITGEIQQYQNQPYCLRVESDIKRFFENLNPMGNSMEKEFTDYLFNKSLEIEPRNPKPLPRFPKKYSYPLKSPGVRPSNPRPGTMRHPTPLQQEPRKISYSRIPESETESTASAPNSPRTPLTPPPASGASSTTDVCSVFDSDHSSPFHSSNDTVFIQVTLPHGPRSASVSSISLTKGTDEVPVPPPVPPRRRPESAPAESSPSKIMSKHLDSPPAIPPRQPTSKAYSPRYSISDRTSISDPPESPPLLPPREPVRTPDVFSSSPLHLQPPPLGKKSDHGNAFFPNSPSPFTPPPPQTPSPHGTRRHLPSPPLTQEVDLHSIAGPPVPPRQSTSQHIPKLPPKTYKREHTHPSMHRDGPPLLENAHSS
QUANTITY_NAME: pIC50
Remember the convention: pIC50 equals -log10 of concentration in molar.

COMPOUND: C[C@@H](Nc1nnc(N2CCN(C)C[C@@H]2C)c2cc(=O)n(C3(C)CC3)cc12)c1cccc(C(F)F)c1F [Example 195]
pIC50: 8.43
//
COMPOUND: Cc1cc(N)cc([C@@H](C)Nc2nnc(N3CCN(C4CCCC4)CC3)c3cc(=O)n(C4CC4)cc23)c1F [Example 148]
pIC50: 8.19
//
COMPOUND: Cc1c(C#N)cccc1[C@@H](C)Nc1nnc(N2CCC2)c2cc(=O)n(C3CC3)cc12 [Example 36]
pIC50: 7.97

Could you now consider this next compound?
Prompt: Query: pIC50; subject: CC(C)C1CCN(c2nnc(N[C@H](C)c3cccc(C(F)F)c3F)c3cn(C4(C)CC4)c(=O)cc23)CC1 [Example 121]
Completion: 8.26
